Test: Aqueous solubility, shake-flask method
Format: physicochemical
Details: 30 °C, aqueous buffer, thermodynamic from solid; Britton-Robinson buffer at pH 6.5
PARAMETER: solubility at 48 h (µg/mL)
Give bare numbers, in µg/mL.

>  <MOLECULE>
O=C(O)c1cc(-c2c[nH]nc2F)ccc1Oc1ccc2ccccc2c1 [Compound 8n]

>  <UNIT TAG>
µg/mL

>  <solubility at 48 h>
681

$$$$
>  <MOLECULE>
NS(=O)(=O)c1cc(-c2cn[nH]c2)ccc1Oc1ccc2ccccc2c1 [Compound 8i]

>  <UNIT TAG>
µg/mL

>  <solubility at 48 h>
55.2

$$$$
>  <MOLECULE>
O=C(O)c1cc(-c2cn[nH]c2)ccc1Oc1ccc2ccccc2c1 [Compound 8g]

>  <UNIT TAG>
µg/mL

>  <solubility at 48 h>
739

$$$$

With those in mind, consider the next molecule.
# get_value(readout='solubility at 48 h', item= CCOc1ccc(-c2cccc(Oc3ccc(-c4c[nH]nc4F)cc3C(=O)O)c2)cc1 [Compound 8w] )
1.7
